System: 454973-116-R2-J3-PDC spheroids, viability, % test/control;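 also: spheroids exposed to compounds for seven days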
Assay: Anticancer human tumor 454973-116-R2-J3-PDC patient-derived pancreatic carcinoma cell line growth inhibition [GQUAD]; active = viability on the fitted dose curve at most 10% of control; inactive = the rest
Conditions: second compound 0.1 µM; first compound 0.316 µM; spheroids with HUVEC and MSC
Excerpt: DNA G-quadruplex Stabilizer Agents in Combinations in Complex Spheroids A high-throughput screen of multi-cell type tumor spheroids was designed to identify active combinations of DNA G-quadruplex stabilizer agents and targeted small molecules. […] Compounds. […] If the clinical Cmax for an agent had not been determined, the highest concentration tested was 10 microM. […]
Please state which outcome applies, choosing from active, inactive

Below, 4 compounds whose answers are already recorded.
COMPOUND	TGT	CATEGORY_LABEL
CC1COCCN1c1cc(C2(O)CC3CCC(C2)O3)c2cnn(-c3ccn[nH]3)c2n1 (stereo not given) + Cc1[nH]c2ccc(F)cc2c1-c1nc2c3cccnc3c3ncccc3c2[nH]1	454973-116-R2-J3-PDC spheroids, viability, % test/control	inactive
Cc1[nH]c2ccccc2c1CCNCc1ccc(/C=C/C(=O)NO)cc1 + Cc1[nH]c2ccc(F)cc2c1-c1nc2c3cccnc3c3ncccc3c2[nH]1	454973-116-R2-J3-PDC spheroids, viability, % test/control	active
C=CCn1c(=O)c2cnc(Nc3ccc(N4CCN(C)CC4)cc3)nc2n1-c1cccc(C(C)(C)O)n1 + Cc1[nH]c2ccc(F)cc2c1-c1nc2c3cccnc3c3ncccc3c2[nH]1	454973-116-R2-J3-PDC spheroids, viability, % test/control	inactive
CC1COCCN1c1cc(C2(O)CC3CCC(C2)O3)c2cnn(-c3ccn[nH]3)c2n1 (stereo not given) + CN(C)c1ccc(Nc2c3ccc(NC(=O)CCN4CCCC4)cc3nc3cc(NC(=O)CCN4CCCC4)ccc23)cc1	454973-116-R2-J3-PDC spheroids, viability, % test/control	inactive

Okay, next one:
Q: Short answer needed: outcome of this test for CCc1c2c(nc3ccc(O)cc13)-c1cc3c(c(=O)n1C2)COC(=O)[C@]3(O)CC + Cc1[nH]c2ccc(F)cc2c1-c1nc2c3cccnc3c3ncccc3c2[nH]1 ?
A: active
